target: RON (human) (Homo sapiens, UniProt Q04912); assay: RON (human) AlphaScreen kinase assay, Km of ATP; assay type: biochemical; conditions: AlphaScreen, Km of ATP; read-out: RON biochemical IC50
Sequence (Q04912 25-1400): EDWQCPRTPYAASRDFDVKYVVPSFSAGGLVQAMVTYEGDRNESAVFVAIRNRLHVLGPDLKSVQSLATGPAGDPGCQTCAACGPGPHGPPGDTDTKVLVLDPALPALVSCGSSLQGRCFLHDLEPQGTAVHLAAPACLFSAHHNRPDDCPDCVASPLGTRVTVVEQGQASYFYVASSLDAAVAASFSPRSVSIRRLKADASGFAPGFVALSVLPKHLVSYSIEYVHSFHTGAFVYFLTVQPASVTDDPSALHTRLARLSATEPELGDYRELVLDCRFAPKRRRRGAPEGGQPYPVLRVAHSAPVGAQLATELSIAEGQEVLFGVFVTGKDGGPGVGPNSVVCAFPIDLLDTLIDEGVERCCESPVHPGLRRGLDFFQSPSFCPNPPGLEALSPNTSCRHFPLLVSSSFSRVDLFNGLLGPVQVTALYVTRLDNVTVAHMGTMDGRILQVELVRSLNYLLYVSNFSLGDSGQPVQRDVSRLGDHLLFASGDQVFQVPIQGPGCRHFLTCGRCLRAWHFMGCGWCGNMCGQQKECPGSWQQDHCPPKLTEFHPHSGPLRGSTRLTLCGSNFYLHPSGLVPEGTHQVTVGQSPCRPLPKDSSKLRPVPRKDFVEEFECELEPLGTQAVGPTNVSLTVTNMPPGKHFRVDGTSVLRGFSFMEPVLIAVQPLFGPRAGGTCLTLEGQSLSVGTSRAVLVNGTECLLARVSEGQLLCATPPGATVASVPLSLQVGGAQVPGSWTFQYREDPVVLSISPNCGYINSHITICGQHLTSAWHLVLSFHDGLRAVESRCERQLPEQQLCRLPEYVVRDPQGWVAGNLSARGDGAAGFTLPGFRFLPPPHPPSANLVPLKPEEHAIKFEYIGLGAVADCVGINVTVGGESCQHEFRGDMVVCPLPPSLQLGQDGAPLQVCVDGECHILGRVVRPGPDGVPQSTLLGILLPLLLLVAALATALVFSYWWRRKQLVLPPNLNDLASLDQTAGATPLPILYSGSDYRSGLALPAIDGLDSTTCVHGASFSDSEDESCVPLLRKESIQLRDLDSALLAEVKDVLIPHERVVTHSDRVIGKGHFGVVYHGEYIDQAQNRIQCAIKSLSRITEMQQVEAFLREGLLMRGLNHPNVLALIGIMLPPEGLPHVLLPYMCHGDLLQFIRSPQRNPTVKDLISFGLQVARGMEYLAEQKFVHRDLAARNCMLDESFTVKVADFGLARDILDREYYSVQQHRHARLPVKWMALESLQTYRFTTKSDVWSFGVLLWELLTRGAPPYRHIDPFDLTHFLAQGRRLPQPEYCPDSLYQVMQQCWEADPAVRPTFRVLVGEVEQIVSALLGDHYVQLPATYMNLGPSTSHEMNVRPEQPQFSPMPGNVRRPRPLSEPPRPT
# key: entry, value: IC50

{"compound": "C[C@@H]1CN(Cc2cc(-c3coc4c(O[C@H](C)c5c(Cl)ccc(F)c5Cl)c(N)ncc34)cs2)C[C@H](C)N1", "IC50": "< 0.5 µM"}
{"compound": "C[C@@H](Cc1ccccc1)Oc1c(N)ncc2c(-c3cnn(C4CCNCC4)c3)coc12", "IC50": "0.5 to 5 µM"}
{"compound": "Nc1ncc2c(-c3cnn(C4CCNCC4)c3)coc2c1OCc1c(Cl)ccc(F)c1Cl", "IC50": "0.5 to 5 µM"}
{"compound": "C[C@@H](Oc1c(N)ncc2c(C3=CCN(C(=O)CO)CC3)coc12)c1c(Cl)ccc(F)c1Cl", "IC50": "0.5 to 5 µM"}
{"compound": "C[C@@H](Oc1c(N)ncc2c(-c3ccc(C(=O)N4CCN(C)CC4)cc3)coc12)c1c(Cl)ccc(F)c1Cl", "IC50": "0.5 to 5 µM"}
{"compound": "Cc1ccc(-c2coc3c(O[C@H](C)c4c(Cl)ccc(F)c4Cl)c(N)ncc23)o1", "IC50": "0.5 to 5 µM"}
{"compound": "C[C@@H](Oc1c(N)ncc2ccoc12)c1nnc2ccc(-c3ccccc3)nn12", "IC50": "> 20 µM"}
{"compound": "C[C@@H](Oc1c(N)ncc2c(C3=CCN(C(=O)[C@@H]4CCCN4C)CC3)coc12)c1c(Cl)ccc(F)c1Cl", "IC50": "< 0.5 µM"}
{"compound": "C[C@H](Oc1c(N)ncc2c(C3=CCN(C(N)=O)CC3)coc12)c1c(Cl)ccc(F)c1Cl", "IC50": "0.5 to 5 µM"}
{"compound": "C[C@@H](Oc1c(N)ncc2c(C3=CCN(C(=O)Nc4ccccc4F)CC3)coc12)c1c(Cl)ccc(F)c1Cl", "IC50": "0.5 to 5 µM"}
{"compound": "C[C@@H](Oc1c(N)ncc2c(-c3cnn(C4CCNCC4)c3)c(Br)oc12)c1c(Cl)ccc(F)c1Cl", "IC50": "0.5 to 5 µM"}
{"compound": "C[C@@H](Oc1c(N)ncc2c(-c3ccc(NCCN4CCOCC4)nc3)coc12)c1c(Cl)ccc(F)c1Cl", "IC50": "0.5 to 5 µM"}
{"compound": "CC(Cc1c(Cl)cccc1Br)Oc1c(N)ncc2c(-c3cnn(C4CCNCC4)c3)coc12 (stereo not drawn)", "IC50": "0.5 to 5 µM"}
{"compound": "Cc1ccccc1C(C)Oc1c(N)ncc2c(-c3cnn(C4CCNCC4)c3)coc12 (stereo not drawn)", "IC50": "0.5 to 5 µM"}
{"compound": "C[C@H](N)C(=O)N1CC=C(c2coc3c(O[C@H](C)c4c(Cl)ccc(F)c4Cl)c(N)ncc23)CC1", "IC50": "< 0.5 µM"}
{"compound": "CCCN1CC=C(c2coc3c(O[C@H](C)c4c(Cl)ccc(F)c4Cl)c(N)ncc23)CC1", "IC50": "< 0.5 µM"}
{"compound": "C[C@@H](Oc1c(N)ncc2c(C3=CCN(C(=O)c4ccccc4)CC3)coc12)c1c(Cl)ccc(F)c1Cl", "IC50": "0.5 to 5 µM"}
{"compound": "Cc1csc(-c2coc3c(O[C@H](C)c4c(Cl)ccc(F)c4Cl)c(N)ncc23)c1", "IC50": "0.5 to 5 µM"}
{"compound": "C[C@@H](Oc1c(N)ncc2c(-c3ccc([N+](=O)[O-])nc3)coc12)c1c(Cl)ccc(F)c1Cl", "IC50": "5 to 20 µM"}
{"compound": "Cn1c(Cc2ccccc2)ncc(-c2ccc(COc3c(N)ncc4c(-c5cnn(C6CCNCC6)c5)coc34)cc2)c1=O", "IC50": "< 0.5 µM"}
{"compound": "C[C@@H](Oc1c(N)ncc2c(-c3csc(C(=O)O)c3)coc12)c1c(Cl)ccc(F)c1Cl", "IC50": "0.5 to 5 µM"}
{"compound": "CC(Oc1c(N)ncc2c(-c3cnn(C4CCNCC4)c3)coc12)c1c(Cl)c(F)cc(OC2CNC2)c1Cl (stereo not drawn)", "IC50": "< 0.5 µM"}
{"compound": "C[C@H](Oc1c(N)ncc2ccoc12)c1nnc2ccc(-c3ccccc3)nn12", "IC50": "> 20 µM"}
{"compound": "C[C@@H](Oc1c(N)ncc2c(-c3csc(C=O)c3)coc12)c1c(Cl)ccc(F)c1Cl", "IC50": "0.5 to 5 µM"}
{"compound": "C[C@@H](Oc1c(N)ncc2c(C3=CCN(C(=O)N4CCCCC4)CC3)coc12)c1c(Cl)ccc(F)c1Cl", "IC50": "0.5 to 5 µM"}
{"compound": "Nc1ncc2c(-c3cnn(C4CCNCC4)c3)coc2c1OC(c1c(F)ccc(F)c1Cl)C1CC1 (stereo not drawn)", "IC50": "< 0.5 µM"}
{"compound": "C[C@@H](Oc1c(N)ncc2c(-c3csc(CN4CCC(O)CC4)c3)coc12)c1c(Cl)ccc(F)c1Cl", "IC50": "< 0.5 µM"}
{"compound": "C[C@@H](Oc1c(N)ncc2c(-c3ccc(CN4CCN(C)CC4)s3)coc12)c1c(Cl)ccc(F)c1Cl", "IC50": "< 0.5 µM"}
{"compound": "C[C@@H](Oc1c(N)ncc2c(C(=O)NCCCN(C)C)coc12)c1c(Cl)ccc(F)c1Cl", "IC50": "0.5 to 5 µM"}
{"compound": "C[C@@H](Oc1c(N)ncc2c(C3=CCS(=O)(=O)CC3)coc12)c1c(Cl)ccc(F)c1Cl", "IC50": "0.5 to 5 µM"}
